Data origin: patent US8835466B2

# System: Ehrlich tumour cells (murine mammary adenocarcinoma)
# EXPERIMENTAL DETAILS: Effect of isomers and BLAS on in vivo tumour growth, Ehrlich tumours (Example 9)
# Parameters: species or system Balb/c mice
# MEASUREMENT CONDITIONS: day 23 after tumour inoculation; 260 ng/mouse i.p. days 6, 7 and 14
ASSAY READOUT: Tumour surface, overall values (Median)

# count of solved cases: 3
COMPOUND: Br.N[C@@]1(C[n+]2ccccc2)C[C@H](C(=O)O)NC1=O.[Br-] (single isomer, unassigned; isomer 2) [isomer 2]
Tumour surface, overall values (Median): 33 mm^2
//
COMPOUND: Br.N[C@@]1(C[n+]2ccccc2)C[C@@H](C(=O)O)NC1=O.[Br-] (single isomer, unassigned; isomer 1) [isomer 1]
Tumour surface, overall values (Median): 39.5 mm^2
//
COMPOUND: Br.N[C@]1(C[n+]2ccccc2)C[C@H](C(=O)O)NC1=O.[Br-] (single isomer, unassigned; isomer 4) [isomer 4]
Tumour surface, overall values (Median): 39 mm^2

Name the reported Tumour surface, overall values (Median) value associated with the compound Br.N[C@]1(C[n+]2ccccc2)C[C@@H](C(=O)O)NC1=O.[Br-] (single isomer, unassigned; isomer 3) [isomer 3]
25 mm^2

###

# System: Ehrlich tumour cells (murine mammary adenocarcinoma)
# EXPERIMENTAL DETAILS: Effect of isomers and BLAS on in vivo tumour growth, Ehrlich tumours (Example 9)
# Set-up: species or system Balb/c mice
# MEASUREMENT CONDITIONS: day 8 after tumour inoculation; 260 ng/mouse i.p. days 6, 7 and 14
# Description: This assay was made in order to compare the effect of each stereoisomer on in vivo tumour growth in mice with the effect of the mixture of all of them challenged with Ehlrich tumours. The same products, equipment, reagents, doses, vehicle and route of administration as in example 8 were used. […] Mice were observed daily and the tumour size recorded twice a week. […] Results were expressed as single values and/or as the mean±SD or median from each experimental group. […]
Exercise: state measured Tumour volume, overall values (Mean) for each of the compounds provided.
Number plus unit, in that order.

# count of solved cases: 3
COMPOUND: Br.N[C@@]1(C[n+]2ccccc2)C[C@H](C(=O)O)NC1=O.[Br-] (single isomer, unassigned; isomer 2) [isomer 2]
TARGET: Ehrlich tumour cells (murine mammary adenocarcinoma)
Tumour volume, overall values (Mean): 10.97 mm^3

COMPOUND: Br.N[C@@]1(C[n+]2ccccc2)C[C@@H](C(=O)O)NC1=O.[Br-] (single isomer, unassigned; isomer 1) [isomer 1]
TARGET: Ehrlich tumour cells (murine mammary adenocarcinoma)
Tumour volume, overall values (Mean): 9.91 mm^3

COMPOUND: Br.N[C@]1(C[n+]2ccccc2)C[C@H](C(=O)O)NC1=O.[Br-] (single isomer, unassigned; isomer 4) [isomer 4]
TARGET: Ehrlich tumour cells (murine mammary adenocarcinoma)
Tumour volume, overall values (Mean): 5.94 mm^3

Please look at the following compound next.
Name the reported Tumour volume, overall values (Mean) value associated with the compound Br.N[C@]1(C[n+]2ccccc2)C[C@@H](C(=O)O)NC1=O.[Br-] (single isomer, unassigned; isomer 3) [isomer 3]
6 mm^3

###

# System: Ehrlich tumour cells (murine mammary adenocarcinoma)
# EXPERIMENTAL DETAILS: Effect of isomers and BLAS on in vivo tumour growth, Ehrlich tumours (Example 9)
# Design: species or system Balb/c mice
# MEASUREMENT CONDITIONS: day 0 after tumour inoculation; 260 ng/mouse i.p. days 6, 7 and 14
Exercise: state measured Tumour volume, overall values (Mean) for each of the molecules provided.
One number for each entry, in mm^3.

# count of solved cases: 3
MOLECULE: Br.N[C@@]1(C[n+]2ccccc2)C[C@@H](C(=O)O)NC1=O.[Br-] (single isomer, unassigned; isomer 1) [isomer 1]
ASSAY READOUT: Tumour volume, overall values (Mean)
UNIT SPEC: mm^3
QUANTITATIVE READOUT: 0
--
MOLECULE: Br.N[C@@]1(C[n+]2ccccc2)C[C@H](C(=O)O)NC1=O.[Br-] (single isomer, unassigned; isomer 2) [isomer 2]
ASSAY READOUT: Tumour volume, overall values (Mean)
UNIT SPEC: mm^3
QUANTITATIVE READOUT: 0
--
MOLECULE: Br.N[C@]1(C[n+]2ccccc2)C[C@@H](C(=O)O)NC1=O.[Br-] (single isomer, unassigned; isomer 3) [isomer 3]
ASSAY READOUT: Tumour volume, overall values (Mean)
UNIT SPEC: mm^3
QUANTITATIVE READOUT: 0

# get_value(readout= Tumour volume, overall values (Mean), system= Ehrlich tumour cells (murine mammary adenocarcinoma)) for Br.N[C@]1(C[n+]2ccccc2)C[C@H](C(=O)O)NC1=O.[Br-] (single isomer, unassigned; isomer 4) [isomer 4]
0
